assay: qHTS assay to identify small molecule agonists of the progesterone receptor (PR) signaling pathway - cell viability counter screen (AID 1346799); conditions: PR-UAS-bla HEK293T viability, CellTiter-Glo luminescence, 16 h; series mostly up to 92.4 µM; also: nearly all actives have a fitted effect of over 45% in size; also: potency is read from the fitted curve at half-maximal effect
Results filed as inconclusive are left out. Active and inactive are the calls of the source. Calls follow the shape of the full dose curve.
parameter: Potency

[O]=[Zr] | inactive
CCCSS/C(CCO)=C(\C)N(C=O)Cc1cnc(C)nc1N | inactive
CCc1c(Br)c(Br)c(Br)c(Br)c1Br | inactive
OCCCc1cccnc1 | inactive
c1cc(OCC2CO2)cc(OCC2CO2)c1 (centres undefined) | 60.6 µM (active)

Challenge: What value of measured Potency is listed for "O=Nc1ccc(NO)cc1" ?
Response given: inactive

Challenge: What value of measured Potency is listed for "C=CC(=O)OCCN(CC)CC" ?
Response given: inactive

Challenge: What value of measured Potency is listed for "COCC(=O)O[C@]1(CCN(C)CCCc2nc3ccccc3[nH]2)CCc2cc(F)ccc2[C@@H]1C(C)C" ?
Response given: 21.1 µM (active)

Challenge: What value of measured Potency is listed for "CCOC(/C=C(\C)CCC=C(C)C)OCC" ?
Response given: inactive

Challenge: What value of measured Potency is listed for "CC(C)(c1cc(Br)c(OCCO)c(Br)c1)c1cc(Br)c(OCCO)c(Br)c1" ?
Response given: 33.6 µM (active)

Challenge: What value of measured Potency is listed for "Brc1ccccn1" ?
Response given: inactive

Challenge: What value of measured Potency is listed for "CCCCCCOc1ccc(O)cc1" ?
Response given: inactive

Challenge: What value of measured Potency is listed for "SCCCCCCCCS" ?
Response given: inactive

Challenge: What value of measured Potency is listed for CO[Si](CCC1CCC2OC2C1)(OC)OC (centres undefined) ?
Response given: inactive

Ref: PubChem BioAssay (Tox21)
